All values here come from patent US11247984B2.

- Test System: recombinant human deoxyuridine nucleotidohydrolase (dUTPase) (Homo sapiens)
- Construct: made in house
- Sequence (P33316 1-164 isoform P33316-2): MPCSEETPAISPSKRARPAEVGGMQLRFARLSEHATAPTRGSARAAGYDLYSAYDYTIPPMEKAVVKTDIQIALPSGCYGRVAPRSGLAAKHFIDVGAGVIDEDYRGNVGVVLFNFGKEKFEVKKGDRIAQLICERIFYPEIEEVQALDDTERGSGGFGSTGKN
- Protocol Text: fluorescence-based dUTPase inhibition assay
- Assay type: biochemical
- Recorded Conditions: mean across three concentrations, typically 100, 50 and 25 μmol/L, compared to in-run positive control
Recorded measurements of % relative inhibition vs. positive control, one per entry
Attribute Measured: % relative inhibition vs. positive control (%)

# Substance Smiles, Test System, Quantitative Readout
records = [
    ("CC(C)[C@@H](NS(=O)(=O)CCCCCN1CCC(=O)NC1=O)c1ccc(F)c(OCC2CC2)c1", "recombinant human deoxyuridine nucleotidohydrolase (dUTPase) (Homo sapiens)", 103),
    ("C[C@@H](NS(=O)(=O)CCCOCN1CCC(=O)NC1=O)c1cccc(OCC2CC2)c1", "recombinant human deoxyuridine nucleotidohydrolase (dUTPase) (Homo sapiens)", 174),
    ("CC(C)[C@@H](NS(=O)(=O)CC/C=C/CN1CCC(=O)NC1=O)c1ccc(F)c(OCC2CC2)c1", "recombinant human deoxyuridine nucleotidohydrolase (dUTPase) (Homo sapiens)", 145),
    ("CC[C@@H](NS(=O)(=O)CCCOCN1CCC(=O)NC1=O)c1ccc(F)c(OCC2CC2)c1", "recombinant human deoxyuridine nucleotidohydrolase (dUTPase) (Homo sapiens)", 166),
    ("C[C@H](NS(=O)(=O)CCCCCn1ccc(=O)[nH]c1=O)c1ccc(F)c(OCC2CC2)c1", "recombinant human deoxyuridine nucleotidohydrolase (dUTPase) (Homo sapiens)", 54),
    ("CC(C)COc1cc(C(C)(C)NS(=O)(=O)CC/C=C/CN2CCC(=O)NC2=O)ccc1F", "recombinant human deoxyuridine nucleotidohydrolase (dUTPase) (Homo sapiens)", 80),
    ("C[C@@H](NS(=O)(=O)CCCCCn1ccc(=O)[nH]c1=O)c1ccc(F)c(OCC2CC2)c1", "recombinant human deoxyuridine nucleotidohydrolase (dUTPase) (Homo sapiens)", 214),
]
